Could you please report measured pKd for the items listed next?
Target: T1, MRB1590(10-668) (Trypanosoma brucei, UniProt UPI00067E648B 10-668)
T1 sequence: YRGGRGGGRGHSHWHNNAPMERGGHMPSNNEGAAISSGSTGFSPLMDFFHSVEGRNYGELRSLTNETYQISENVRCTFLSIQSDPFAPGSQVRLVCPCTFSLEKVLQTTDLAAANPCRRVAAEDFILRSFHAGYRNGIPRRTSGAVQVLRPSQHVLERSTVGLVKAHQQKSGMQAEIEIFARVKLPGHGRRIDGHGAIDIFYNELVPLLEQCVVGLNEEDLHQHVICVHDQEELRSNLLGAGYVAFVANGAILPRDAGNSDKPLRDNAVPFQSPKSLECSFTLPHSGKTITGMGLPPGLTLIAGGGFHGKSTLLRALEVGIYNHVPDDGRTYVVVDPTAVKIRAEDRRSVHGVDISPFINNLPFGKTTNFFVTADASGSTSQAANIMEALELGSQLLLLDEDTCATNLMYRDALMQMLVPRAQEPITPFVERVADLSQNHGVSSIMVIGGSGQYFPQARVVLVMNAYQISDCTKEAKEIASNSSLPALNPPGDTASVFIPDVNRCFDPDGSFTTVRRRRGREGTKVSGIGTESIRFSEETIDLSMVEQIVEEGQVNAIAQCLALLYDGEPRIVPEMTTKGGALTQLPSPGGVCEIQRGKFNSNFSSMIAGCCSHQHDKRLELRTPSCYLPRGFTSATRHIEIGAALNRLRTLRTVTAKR
Assay: fluorescence polarization; ADP, Mg2+; FP: 20 mM Tris-HCl pH 7.5, 150 mM NaCl, 5% glycerol, 1 mM MgCl2, 2 mM ADP or AMP-PNP, 1 nM 3'-fluoresceinated RNA (heated to 99 C, slow cooled), 25 C
Settings: protein: recombinant; chain copies: 2; label: 3' fluorescein
Just so you know, pKd here is -log10 of the concentration in molar units; reply with that number alone.

Entry UGAUACAAAAAAACAUGACUACAUGAUAAGUA (ssRNA) [NAD7 #1] : reported pKd = ?
7.30

# iterate: ACCGCCGUCGCCCGCCCGCCU (ssRNA) [Complement of GC-rich RNA]
6.40

Same question, GAACCUGGUAGGUGUAAUGAAAUAAUUUUGU (ssRNA) [COX II #2] this time
7.37

And for CUAAUACACUUUUGAUAACAAACUAAAGUAAAAAGGCGAG (ssRNA) [RSP12 #1] ?
7.20

What do we get for ACAAUAUCAAGUUUAGGUAUAAAGUAGA (ssRNA) [COX II #1] ?
7.36

One more binder: AAAAAAAAAAAAAAA (ssRNA) [A15 RNA]
6.36

Same again, this time with GAGAAGGCGAGGGCGACGGGCAAAAGAUUUU (ssRNA) [NAD7 #2]
8.11

Ok, now UUUUUUUUUUUUUUU (ssRNA) [U15 RNA]
6.74

Continue with GAUUUUUUGAGUGGGACUGGAGAGAAAGAGCCGUUCGAGC (ssRNA) [RSP12 #2]
7.57
